- assay procedure: Solubility of different optical brighteners in GLYMO, heated mixing (MM2)
- Format: physicochemical
- run conditions: in GLYMO, heated mixing 50° C. (MM2)

test smiles: O=S(=O)(O)c1ccccc1C=Cc1ccc(-c2ccc(C=Cc3ccccc3S(=O)(=O)O)cc2)cc1
Brightness MM2: low
--
test smiles: CC(C)(C)c1ccc2oc(-c3ccc(-c4nc5cc(C(C)(C)C)ccc5o4)s3)nc2c1
Brightness MM2: high
--
test smiles: C(=Cc1ccc(-c2nc3ccccc3o2)cc1)c1ccc(-c2nc3ccccc3o2)cc1
Brightness MM2: high
--
test smiles: CCN(CC)c1nc(Nc2ccc(C=Cc3ccc(Nc4nc(Nc5cc(S(=O)(=O)[O-])ccc5S(=O)(=O)[O-])nc(N(CC)CC)n4)cc3S(=O)(=O)[O-])c(S(=O)(=O)[O-])c2)nc(Nc2cc(S(=O)(=O)[O-])ccc2S(=O)(=O)[O-])n1.[Na+].[Na+].[Na+].[Na+].[Na+].[Na+]
Brightness MM2: low
